Where do the numbers come from? From PubChem BioAssay AID1645855.

Molecular target: Ubiquitin carboxyl-terminal hydrolase 17-like protein 5 (Homo sapiens)
Assay: inhibitors of human USP17 deubiquitinase (AID 1645855)
Conditions: purified USP17, Ub-rhodamine cleavage fluorescence, 3 h; at 50 µM; active compounds read high
Screen size: about 47,000 compounds; about 3,100 (6.6%) were called active. The entries come from a sample that favours actives as a whole.
Reported inhibition is given for each of the following molecules.
measurement_label: inhibition (%)

# molecule, unit_name, measured
records = [
    ("Cc1nc(-c2cccc(S(=O)(=O)Nc3ccccc3C)c2)no1", "%", -1.13),
    ("CSc1cccc(NC(=O)COc2ccc(C(=O)c3ccccc3)cc2)c1", "%", 12.9),
    ("COc1ccc(NS(=O)(=O)c2cc(NC(=O)COc3ccccc3F)ccc2OC)cc1", "%", 6.42),
    ("Cc1nc(-c2ccc(C(=O)NCc3ccc4c(c3)OCO4)cc2)cs1", "%", 29.5),
    ("CC(NC(=O)c1ccc2c(c1)OCCO2)c1ccc2c(c1)OCCCO2 (stereo unspecified)", "%", -21.9),
    ("O=C(NCc1ccccc1)c1cc(-c2ccncc2)n[nH]1", "%", -3.2),
    ("COc1ccc(-c2nc(C3CC(=O)N(c4ccccc4)C3)no2)cc1 (stereo unspecified)", "%", 7.38),
    ("Cc1nc(-c2cccc(NC(=O)C3CCN(c4ccccc4)C3=O)c2)no1 (stereo unspecified)", "%", 52.3),
    ("Cc1nnc2c(NC(=O)Cc3cccc(C(F)(F)F)c3)cccn12", "%", -9.8),
    ("CN(CCc1ccccc1)c1nccc(N2CCN(C(=O)c3csc(-c4cccnc4)n3)CC2)n1", "%", 19.2),
    ("COc1ccc(CCNc2ncnc3c2cnn3Cc2ccccc2)cc1OC", "%", -18.7),
    ("Cn1c(=O)n(CCCO)c(=O)c2c1nc1n2CCCN1c1ccccc1", "%", 9.32),
    ("COc1ccc(NS(=O)(=O)c2cc(NC(=O)CC(=O)c3ccc([N+](=O)[O-])cc3)ccc2C)cc1", "%", 39.9),
    ("O=C(O)c1cc(S(=O)(=O)NC2CCCc3ccccc32)ccc1O (stereo unspecified)", "%", -9.75),
    ("Cc1cc(C)c(Cn2cccc2C2=NC(Cc3ccccc3)CO2)c(C)c1 (stereo unspecified)", "%", 7.3),
    ("COc1ccccc1CNC(=O)c1c(O)c2cccnc2n(-c2ccccc2)c1=O", "%", -4.34),
    ("O=C(NCc1ccccc1)c1c(O)c2cnn(Cc3ccccc3)c2[nH]c1=O", "%", 33.7),
    ("C=C1CCC2[C@](C)(CCC[C@]2(C)C(=O)OC)[C@H]1CCc1ccoc1C[N+](C)(C)Cc1ccccc1 (stereo partly specified)", "%", 31.1),
    ("CCc1ccc(-n2c(=O)c3ccccc3n(CC(=O)NCCC3=CCCCC3)c2=O)cc1", "%", 64.3),
    ("CC(=O)CCCSc1ncnc2c1sc1nc(N3CCOCC3)c3c(c12)CC(C)(C)OC3", "%", 16.1),
    ("Cc1ccc(Cn2c(C)c(CNCCC3=CCCCC3)c(C(=O)O)c2C)cc1", "%", 7.92),
]

* * *

Biological target: Ubiquitin carboxyl-terminal hydrolase 17-like protein 5 (Homo sapiens)
Assay: inhibitors of human USP17 deubiquitinase (AID 1645855)
Settings: purified USP17, Ub-rhodamine cleavage fluorescence, 3 h; at 50 µM
Out of some 47,000 compounds screened, about 3,100 (6.6%) were called active. Cut-off read from the data, not from the text of the source: active = inhibition above about 30%; inactive = the rest. The list comes from a sample in which actives are over-represented; it also holds close analogues and randomly drawn compounds.
Labels: True for active, False for inactive

# compound, class
rows = [
    ("O=C(CSc1cn[nH]n1)Nc1ccc(F)c(Cl)c1", "False"),
    ("CC(C)Cc1noc(CN2CCC3(CC2)CC3c2nnc(-c3cccc(F)c3)o2)n1 (stereo unspecified)", "False"),
    ("O=C(CN1CCC(Nc2nc3c(c(=O)[nH]2)CCCC3)CC1)Nc1ccccc1[N+](=O)[O-]", "False"),
    ("O=C(Cn1c(-c2nc(-c3ccc(F)cc3)no2)cccc1=O)N1CCCC1", "True"),
    ("CN1CCc2c(sc3nc(SCCc4ccccc4)n(-c4ccccc4)c(=O)c23)C1", "True"),
    ("CC(C)(C)C(=O)Nc1ccc(SCc2nnc(-c3ccccc3)o2)cc1", "False"),
    ("COc1ccc(-c2nc(N(Cc3ccccc3)C(=O)CN3CCOCC3)sc2C)cc1", "False"),
    ("Cc1nnc(C(=O)Nc2ccc(C(=O)NCc3ccccc3C)cc2)s1", "True"),
    ("CC(=O)Nc1ccc(-n2cnc(C(=O)NCc3ccc(C)cc3)c2)nc1", "True"),
    ("CC(=O)N[C@@]12CN(C)CC[C@@H]1[C@@H](c1ccccc1)N(CC(=O)Nc1ccc(F)cc1)C2", "False"),
    ("CC(=O)Nc1ccc(-n2cnc(C(=O)N3CCN(c4cccc(C)c4)CC3)c2)nc1", "False"),
    ("Cc1cc(C)nc(N(C(=O)C2CC2)c2ccc(OC(F)(F)F)cc2)n1", "False"),
    ("COc1cccc(NC(=O)c2ccc3c(c2)N(S(C)(=O)=O)CC3)c1", "True"),
    ("Fc1cccc(Nc2nc(-c3ccncc3)nc3c2CCC3)c1", "True"),
    ("O=C(Cn1cccc1C(=O)c1ccccc1)NC1CCN(Cc2ccccc2)CC1", "False"),
    ("COc1ccc(OC)c(CNC(=O)c2nnc(C(=O)Nc3ccc(F)cc3)s2)c1", "False"),
    ("CCOc1ccc(C(=O)C[n+]2cc(-c3ccccc3)n3c2CCC3)cc1", "False"),
    ("CCNC(=O)c1cccc(Nc2c(-c3ccc(Cl)cc3)nc3cnccn23)c1", "False"),
    ("CCn1cc(S(=O)(=O)CC(=O)Nc2ccccc2C(F)(F)F)c2ccccc21", "False"),
    ("COc1ccc(N2CCN(Cc3cc(=O)oc4cc(O)ccc34)CC2)cc1", "False"),
    ("CC1CCC(NC(=O)Cn2c(=O)[nH]c3ccccc3c2=O)CC1 (stereo unspecified)", "True"),
    ("O=C(c1ccco1)[C@@H]1[C@@H]2C(=O)N(c3cccc([N+](=O)[O-])c3)C(=O)[C@@H]2C2c3ccccc3C=CN21 (stereo partly specified)", "False"),
    ("Cc1nnc(OCC(=O)Nc2ccc(OC(F)(F)F)cc2)c2ccccc12", "True"),
    ("Cc1cc(O)c(=O)cc2c1C[C@H]1CC(C)(C)/C=C/C[C@@]3(C)Oc4cc(=O)c(O)cc(C)c4C[C@@H]3C[C@H](O)[C@]1(C)O2", "True"),
    ("CCCNC(=O)c1nn(-c2ccc(F)cc2)c2c1CCCCC2", "False"),
    ("CCC1(C)Cc2c(sc3nc(SCC(=O)NCCc4ccccc4)nc(N)c23)CO1 (stereo unspecified)", "False"),
    ("COc1ccccc1NC(=O)c1cccc(S(=O)(=O)N2CCc3ccccc32)c1", "False"),
    ("CCCC(=O)N1CCC(c2cc(=O)[nH]c(-c3ccccn3)n2)C1 (stereo unspecified)", "False"),
    ("Cc1ccccc1CNC(=O)c1sc2ncnc(N3CCCC3)c2c1C", "False"),
    ("CCCc1nc2sc3c(N4CCC(C)CC4)ncnc3c2c2c1CCC2", "False"),
    ("Cc1cc(C)n(-c2ccc(C(=O)Nc3ccccc3C(C)C)nn2)n1", "False"),
    ("CCCCc1nc2sc3c(SCC(=O)NCc4ccccc4)ncnc3c2c2c1CCC2", "True"),
    ("CCN1CCN(c2cc(C)c3cc(NC(=O)c4cccnc4)ccc3n2)CC1", "False"),
    ("O=C1C(O)=C(c2ccc(O)c(O)c2)C(=O)C(O)=C1c1ccccc1", "True"),
    ("COC(=O)c1ccc(NC(=O)CSc2nnc(C(C)Oc3ccccc3)n2C)cc1 (stereo unspecified)", "False"),
    ("Cc1ccc(Nc2nc(C(=O)NCCN3CCCCC3C)cc3occc23)cc1Cl (stereo unspecified)", "False"),
    ("COc1ccc(NC(=O)CCN2C(=O)c3cccnc3Sc3ccccc32)cc1", "False"),
    ("O=C(Nc1ccc2oc(-c3ccccc3)nc2c1)c1cccc(-n2cnnc2)n1", "False"),
    ("Cc1cc(N)nc2c1c(C)nn2-c1ncc(C(F)(F)F)cc1Cl", "False"),
    ("O=C(N[C@@H](C(=O)O)c1ccccc1)[C@@H](Cc1ccccc1)n1c(=O)[nH]c2ccccc2c1=O", "False"),
    ("CN1[C@@H](CCC(=O)N2CCN(c3ccccc3)CC2)CNC(=O)[C@H]2NCC[C@H]21", "False"),
]

* * *

Target: Ubiquitin carboxyl-terminal hydrolase 17-like protein 5 (Homo sapiens) (UniProt A8MUK1)
Sequence (A8MUK1 whole entry, looked up): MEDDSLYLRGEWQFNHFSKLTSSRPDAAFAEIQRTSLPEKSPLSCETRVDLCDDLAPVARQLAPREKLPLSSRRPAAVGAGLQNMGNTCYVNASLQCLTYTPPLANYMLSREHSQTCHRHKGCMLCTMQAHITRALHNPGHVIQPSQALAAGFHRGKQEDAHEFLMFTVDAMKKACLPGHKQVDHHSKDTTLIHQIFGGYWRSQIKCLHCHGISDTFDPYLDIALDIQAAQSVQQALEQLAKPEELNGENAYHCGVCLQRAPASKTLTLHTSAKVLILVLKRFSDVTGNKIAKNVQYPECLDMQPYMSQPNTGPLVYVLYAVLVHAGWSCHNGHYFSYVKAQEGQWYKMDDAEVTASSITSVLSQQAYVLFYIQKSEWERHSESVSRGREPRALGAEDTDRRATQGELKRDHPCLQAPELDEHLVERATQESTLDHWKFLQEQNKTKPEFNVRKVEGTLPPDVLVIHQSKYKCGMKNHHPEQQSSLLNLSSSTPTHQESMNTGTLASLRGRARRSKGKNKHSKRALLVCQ
Assay: inhibitors of human USP17 deubiquitinase (AID 1645855)
Conditions: purified USP17, Ub-rhodamine cleavage fluorescence, 3 h; at 50 µM; active compounds read high
In all, about 47,000 compounds went through this assay and about 3,100 (6.6%) were called active. Many of the other results were omitted from the sample, so actives are more common in it than they were.
Reported inhibition is given for each of the following compounds.

# compound, unit_name, inhibition
records = [
    ("O=C(Cc1cccc(C(F)(F)F)c1)Nc1cccn2ncnc12", "%", -3.85),
    ("Cc1cc(-c2nnc(SCC(=O)Nc3ccc(Br)c(C)c3)n2N)n[nH]1", "%", 23.4),
    ("O=C(CN1C(=O)c2cccnc2Sc2ccccc21)Nc1ccc(F)cc1F", "%", -19.9),
    ("Cc1c(Cl)cccc1NC(=O)C(=O)c1cn(CC(=O)N2CCOCC2)c2ccccc12", "%", -0.359),
    ("CCOCCCNc1ncnc2c1sc1nc(N3CCOCC3)c3c(c12)CC(C)(C)OC3", "%", -1.37),
    ("Cc1ccc(CN2CCC(N3CCN(C(=O)c4c(C)nn(C)c4C)CC3=O)CC2)cc1", "%", 2.05),
    ("O=C(Cc1c(Cl)cccc1Cl)NCc1cccc(C(F)(F)F)c1", "%", 34.4),
    ("CC1=NS(=O)(=O)N(Cc2ccccc2)C=C1C(=O)Nc1cc(F)ccc1F", "%", -4.7),
    ("COc1ccccc1NC(=O)N1CCN(Cc2nc3ccccc3o2)CC1", "%", -4.24),
    ("Cc1c(Cl)cccc1NC(=O)CCn1cnc2ccccc2c1=O", "%", 55.3),
    ("Cc1ccc(NC(=O)C2CCCN(c3ncnc4onc(C)c34)C2)nc1 (centres undefined)", "%", 0.0336),
    ("CC(=O)N1CCc2cc(C(O)CN3CCN(c4ccccc4)CC3)ccc21 (centres undefined)", "%", 47.6),
    ("O=C(c1ccc(Br)o1)N(Cc1cccc(F)c1)c1ccccn1", "%", 12.8),
    ("O=C(Nc1ccc(Cl)cc1F)c1cc(-c2ccccn2)n[nH]1", "%", 83.2),
    ("OCc1cc2c([nH]c3ccccc32)c([C@@H](O)CO)n1", "%", -4.94),
    ("Cc1cc(=O)n(CC(=O)NCc2ccccc2Cl)c(N2CCCC2)n1", "%", -2.72),
    ("O=C(Cc1cccc2ccccc12)Nc1nc2ccc(F)cc2s1", "%", 23.9),
    ("O=c1c2ccccc2n(Cc2ccccc2Cl)c(=O)n1Cc1ccco1", "%", -8.56),
    ("Cn1c(=O)c2ncn(CC(=O)Nc3ccc(-c4nc5ccccc5o4)cc3)c2n(C)c1=O", "%", 8.05),
    ("O=C(Nc1ccc(F)cc1)C1CCCN(C(=O)c2cc(-c3ccccn3)n[nH]2)C1 (centres undefined)", "%", -40),
    ("CC(C)NC(=O)N1CCCN(C2CCN(Cc3ccccc3)C2=O)CC1 (centres undefined)", "%", -36.9),
    ("N#Cc1cccc(NC(=O)COC(=O)c2cc3ccccc3oc2=O)c1", "%", 3.87),
    ("COc1ccc(-c2noc(-c3cccc(OCC(=O)NC(C)C)c3)n2)cc1", "%", -0.296),
    ("CN(C)C(=O)c1cccnc1-c1nc2ccccc2s1", "%", 9.06),
    ("COc1cc(Cl)c(NC(=O)c2cc(-c3ccccn3)n[nH]2)c(OC)c1", "%", 47.4),
    ("O=C(CCc1nc2sc3c(c2c(=O)[nH]1)CCCC3)Nc1ccc(F)cc1", "%", 2.56),
    ("Cc1ccccc1CNC(=O)Cn1c(=O)ccn(Cc2ccc(F)cc2)c1=O", "%", 42.9),
    ("CC(=O)c1ccc(N2CCN(C(=O)c3ccc4noc(-c5ccccc5)c4c3)CC2)cc1", "%", -0.00315),
    ("Cc1cc(NC(=O)COC(=O)c2cccc(C)c2O)ccc1Br", "%", 37),
    ("O=C(Nc1nc(-c2ccc3c(c2)CCN3C(=O)c2ccccc2F)cs1)c1cccnc1", "%", 77.7),
    ("CCOc1ccccc1CNC(=O)CCn1c(-c2ccc(F)cc2)cc(C(C)=O)c1C", "%", -2.37),
    ("CCCC(=O)Nc1nc2ccc(CCC(=O)NCc3ccc(F)cc3)cc2s1", "%", 65.3),
    ("Cc1ccc(NC(=O)CCn2cnc3c2c(=O)n(C)c(=O)n3C)cc1", "%", -13),
    ("CCn1c(=O)c(CCC(=O)N2CCN(c3ccccc3)CC2)nc2c(C)nn(-c3ccccc3)c21", "%", 5.12),
    ("COc1ccc(NC(=O)c2cc(CN3CCOCC3)on2)cc1", "%", -3.06),
    ("COc1cccc(CNC(=O)c2ccc(-c3cncnc3)nc2)c1", "%", -9.04),
    ("O=C(NCCc1ccc(F)cc1)c1ccc(S(=O)(=O)Nc2ccccc2F)cc1", "%", 13.4),
    ("Cc1ccc2nc(CCC(=O)NCc3ccc(F)cc3F)n(C)c(=O)c2c1", "%", 10.9),
    ("Cc1nc(C2CCCN2)nc2c1CCC(=O)N2CC1CCCCC1 (centres undefined)", "%", 3.63),
    ("CC(C)OC(=O)c1cc2c(ccn2-c2ccc(F)cc2)n1Cc1ccccn1", "%", 9.79),
    ("CN(CCc1ccccn1)C(=O)c1cc2c(=O)oc3ccccc3c2s1", "%", 14.5),
    ("CC(NC(=O)CN1C(=O)C2CCCN2C(=O)c2ccc(F)cc21)c1ccccc1 (centres undefined)", "%", -12.4),
    ("COc1cnc(-c2ccccn2)nc1Sc1ccc(Cl)cc1Cl", "%", -0.938),
    ("Cc1c(CC(=O)NCC(=O)O)c(=O)oc2c(C)c(O)ccc12", "%", -3.52),
]
